Origin of the recorded values: the supplement of paper PMC3545927

target: furin, P09958; test: furin cleavage Z-score vs untreated control; higher = more cleavage, active = 3.5 or more, inactive = 1 or less, 8 variable residues between constant flanks; conditions: 30 min;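 further: purified furin at 1:10 enzyme:substrate in 50 mM HEPES pH 7.5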
Sequence (P09958 whole entry): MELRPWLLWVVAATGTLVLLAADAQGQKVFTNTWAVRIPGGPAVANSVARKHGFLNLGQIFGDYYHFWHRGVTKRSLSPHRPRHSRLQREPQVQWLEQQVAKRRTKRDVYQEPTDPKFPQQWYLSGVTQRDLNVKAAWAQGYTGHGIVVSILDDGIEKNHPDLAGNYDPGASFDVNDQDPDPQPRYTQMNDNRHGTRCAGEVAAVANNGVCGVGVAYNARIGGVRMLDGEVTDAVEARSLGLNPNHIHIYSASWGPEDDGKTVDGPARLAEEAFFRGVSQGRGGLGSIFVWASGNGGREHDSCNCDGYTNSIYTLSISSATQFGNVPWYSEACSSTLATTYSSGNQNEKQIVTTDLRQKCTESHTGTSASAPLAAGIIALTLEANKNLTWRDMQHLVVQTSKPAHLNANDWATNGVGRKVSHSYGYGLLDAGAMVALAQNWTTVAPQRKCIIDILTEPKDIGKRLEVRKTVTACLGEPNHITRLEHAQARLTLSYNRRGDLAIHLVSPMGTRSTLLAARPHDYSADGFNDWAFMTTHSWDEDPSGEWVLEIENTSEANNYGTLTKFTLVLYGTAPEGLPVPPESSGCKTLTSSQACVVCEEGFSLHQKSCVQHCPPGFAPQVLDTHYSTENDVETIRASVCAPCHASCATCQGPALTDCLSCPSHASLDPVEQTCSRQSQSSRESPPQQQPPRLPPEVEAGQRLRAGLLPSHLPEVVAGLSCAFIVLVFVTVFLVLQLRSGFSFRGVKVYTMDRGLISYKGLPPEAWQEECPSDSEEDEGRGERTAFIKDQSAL
The list shows a part of the results. The hit rate among all sequences tested is not known here.
experimental-endpoint: furin cleavage Z-score
Write the value as a bare number.

Example entries and their recorded answers appear below.
[
  {
    "residues": "CAYRLWHYPCAGNASASA [HC467]",
    "experimental-endpoint": "furin cleavage Z-score",
    "result-value": 0.0366
  },
  {
    "residues": "CATWHRLRKGAGNASASA [FS-1427]",
    "experimental-endpoint": "furin cleavage Z-score",
    "result-value": -1.3
  },
  {
    "residues": "CAGLPVSARRAGNASASA [HC660]",
    "experimental-endpoint": "furin cleavage Z-score",
    "result-value": -0.384
  }
]

GET /value?item= CAFPDRVKRNAGNASASA [FS-770] &field=furin cleavage Z-score returns 3.96

GET /value?item= CARVRRHSDPAGNASASA [FS-2406] &field=furin cleavage Z-score returns 6.84

GET /value?item= CAERRRQAGAAGNASASA [FS-1879] &field=furin cleavage Z-score returns -1.89

GET /value?item= CALRRRQKRQAGNASASA [FS-1234] &field=furin cleavage Z-score returns 9.62
